Recorded pIC50 values for a group of compounds are listed next.
Test system: L1210
TEST_DESCRIPTION: Inhibition of RNA synthesis in mouse L1210 cells
Assay type: functional
CONDITIONS: read-out: ID50 (the source's name)
pIC50: −log10 of the molar value.
PROPERTY_MEASURED: pIC50

[[record]]
compound = "CCO[C@H]1C[C@](C)(O)Cc2cc3c(c(O)c21)C(=O)c1c(O)cc2c(c1C3=O)O[C@@H]1O[C@@]2(C)[C@H](O)[C@@H](N(C)C)[C@@H]1O"
result_qualifier = "="
recorded_value = 6.10

[[record]]
compound = "CO[C@H]1[C@H](O[C@H]2C[C@](C)(O)Cc3cc4c(c(O)c32)C(=O)c2c(O)cc3c(c2C4=O)O[C@@H]2O[C@@]3(C)[C@H](O)[C@@H](N(C)C)[C@@H]2O)O[C@@H](C)[C@H](OC)[C@@]1(C)OC [DISNOGAMYCIN]"
result_qualifier = "="
recorded_value = 6.30

[[record]]
compound = "CCO[C@H]1C[C@@](C)(O)Cc2cc3c(c(O)c21)C(=O)c1c(O)cc2c(c1C3=O)O[C@@H]1O[C@@]2(C)[C@H](O)[C@@H](N(C)C)[C@@H]1O"
result_qualifier = "="
recorded_value = 5.28

[[record]]
compound = "COC(=O)[C@@H]1c2cc3c(c(O)c2[C@@H](O[C@@H]2O[C@@H](C)[C@H](OC)[C@@](C)(OC)[C@H]2OC)C[C@]1(C)O)C(=O)c1c(O)cc2c(c1C3=O)O[C@@H]1O[C@@]2(C)[C@H](O)[C@@H](N(C)C)[C@@H]1O [NOGALAMYCIN]"
result_qualifier = "="
recorded_value = 6.40

[[record]]
compound = "CO[C@H]1C[C@@](C)(O)Cc2cc3c(c(O)c21)C(=O)c1c(O)cc2c(c1C3=O)O[C@@H]1O[C@@]2(C)[C@H](O)[C@@H](N(C)C)[C@@H]1O"
result_qualifier = "<"
recorded_value = 4.34

[[record]]
compound = "COC(=O)[C@@H]1c2cc3c(c(O)c2[C@@H](OC)C[C@@]1(C)O)C(=O)c1c(O)cc2c(c1C3=O)O[C@@H]1O[C@@]2(C)[C@H](O)[C@@H](N(C)C)[C@@H]1O"
result_qualifier = "="
recorded_value = 5.11

[[record]]
compound = "CO[C@H]1C[C@](C)(O)Cc2cc3c(c(O)c21)C(=O)c1c(O)cc2c(c1C3=O)O[C@@H]1O[C@@]2(C)[C@H](O)[C@@H](N(C)C)[C@@H]1O"
result_qualifier = "="
recorded_value = 5.08

[[record]]
compound = "COC(=O)[C@@H]1c2cc3c(c(O)c2[C@@H](OC)C[C@]1(C)O)C(=O)c1c(O)cc2c(c1C3=O)O[C@@H]1O[C@@]2(C)[C@H](O)[C@@H](N(C)C)[C@@H]1O"
result_qualifier = "="
recorded_value = 6.30


* * *

System: L1210
TEST_DESCRIPTION: Cytotoxicity against mouse L1210 cells
Type: functional
Reported ID95 values for a set of compounds
PROPERTY_MEASURED: ID95 (nM)

[[record]]
compound = "Cc1ccc2c(O)c3c(cc2c1)C(=O)c1c2c(cc(O)c1C3=O)[C@@]1(C)O[C@@H](O2)[C@@H](O)[C@H](N(C)C)[C@H]1O [NOGARENE]"
measured_on = "L1210"
recorded_value = 370

[[record]]
compound = "CN(C)[C@H]1[C@H](O)[C@@H]2Oc3c(cc(O)c4c3C(=O)c3cc5c(c(O)c3C4=O)CC[C@](C)(O)C5)[C@@](C)(O2)[C@@H]1O"
measured_on = "L1210"
recorded_value = 1760

[[record]]
compound = "COC(=O)[C@@H]1c2cc3c(c(O)c2CC[C@]1(C)O)C(=O)c1c(O)cc2c(c1C3=O)O[C@@H]1O[C@@]2(C)[C@H](O)[C@@H](N(C)C)[C@@H]1O"
measured_on = "L1210"
recorded_value = 1510

[[record]]
compound = "COC(=O)c1c(C)ccc2c(O)c3c(cc12)C(=O)c1c2c(cc(O)c1C3=O)[C@@]1(C)O[C@@H](O2)[C@@H](O)[C@H](N(C)C)[C@H]1O [NOGALARENE]"
measured_on = "L1210"
recorded_value = 580


* * *

Below, each entry is listed alongside its reported ID95.
System: L1210
TEST_DESCRIPTION: Cytotoxicity against mouse L1210 cells
Type: functional
PROPERTY_MEASURED: ID95 (mg/L)

[[record]]
smiles_input = "CO[C@H]1[C@H](O[C@H]2C[C@](C)(O)Cc3cc4c(c(O)c32)C(=O)c2c(O)cc3c(c2C4=O)O[C@@H]2O[C@@]3(C)[C@H](O)[C@@H](N(C)C)[C@@H]2O)O[C@@H](C)[C@H](OC)[C@@]1(C)OC"
recorded_value = 0.27

[[record]]
smiles_input = "COC(=O)[C@@H]1c2cc3c(c(O)c2[C@@H](O[C@@H]2O[C@@H](C)[C@H](OC)[C@@](C)(OC)[C@H]2OC)C[C@]1(C)O)C(=O)c1c(O)cc2c(c1C3=O)O[C@@H]1O[C@@]2(C)[C@H](O)[C@@H](N(C)C)[C@@H]1O"
recorded_value = 0.18

[[record]]
smiles_input = "CO[C@H]1[C@H](O[C@H]2C[C@](C)(O)[C@H](C(=O)O)c3cc4c(c(O)c32)C(=O)c2c(O)cc3c(c2C4=O)O[C@@H]2O[C@@]3(C)[C@H](O)[C@@H](N(C)C)[C@@H]2O)O[C@@H](C)[C@H](OC)[C@@]1(C)OC"
recorded_value = 1.94

